Reported GI50 values for a set of compounds
# Tested on: MDA-MB-435
# Procedure Text: NCI tumour cell line growth inhibition, 48 h
The source made the active and inactive calls. Cut-off read from the data, not from the text of the source: active = GI50 up to about 1.1 µM and inactive = higher.

COC(=O)c1cc(C)n(CN(Cc2ccccc2)Cn2nc(C(=O)OC)cc2C)n1: > 100 µM (inactive)
C=CCOC(=O)/C(=C\c1ccc(OC)c(OC)c1)c1ccc(OC)c(OC)c1: 56 µM (inactive)
Cc1cc(C)c(C#N)c(SC(=S)NC(=O)c2ccccc2)n1: > 100 µM (inactive)

Query string: # GI50 lookup, item COc1cccc(C2c3cc4c(cc3OC(N3CCOCC3)C2C)OCO4)c1OC (stereo unspecified)
Result string: 10 µM (inactive)

Query string: Would you kindly repeat that for CCOC(=O)/C(=C\NCc1ccc2c(c1)OCO2)c1nc2ccccc2[nH]1 ?
Result string: 48.6 µM (inactive)

Query string: Would you kindly repeat that for COCCOCCOCCC(=O)NC1CC2CCC1(C)C2(C)C (stereo unspecified) ?
Result string: > 100 µM (inactive)

Query string: Would you kindly repeat that for O=C(NCCNCCO)N/N=C/c1ccc([N+](=O)[O-])cc1 ?
Result string: > 100 µM (inactive)

Query string: Would you kindly repeat that for COC1OC(=O)C(OC)C(OC)C1OC (stereo unspecified) ?
Result string: > 100 µM (inactive)

Query string: Would you kindly repeat that for NCCCN1CCN(CCCNc2ccc3ncn4c5ccccc5c(=O)c2c34)CC1 ?
Result string: 1.46 µM (inactive)

Query string: Would you kindly repeat that for [O-][s+]1c2c(Cc3ccccc3)c(Cc3ccccc3)c1CCc1cccc(c1)CC2 ?
Result string: 12.9 µM (inactive)

Query string: Would you kindly repeat that for C[C@H]1CC[C@]2(NC1)O[C@H]1C[C@H]3[C@@H]4CC[C@H]5C[C@@H](O[C@@H]6O[C@H](CO)[C@H](O[C@@H]7O[C@H](CO)[C@@H](O)[C@H](O[C@@H]8OC[C@@H](O)[C@H](O)[C@H]8O)[C@H]7O[C@@H]7O[C@H](CO)[C@@H](O)[C@H](O)[C@H]7O)[C@H](O)[C@H]6O)CC[C@]5(C)[C@H]4CC[C@]3(C)[C@H]1[C@@H]2C [TOMATINE] ?
Result string: 1.41 µM (inactive)

====

Reported GI50 values for a set of compounds
# Tested on: DMS-273
# Procedure Text: NCI tumour cell line growth inhibition, 48 h
The source made the active and inactive calls. Rule as the data show it: active = GI50 up to about 1.1 µM and inactive = higher.

Past entries and their recorded results:
N#CN1CCC=C(c2cc3ccccc3[nH]2)C1: 428 µM (inactive)
O=C1/C(=C/c2cccc([N+](=O)[O-])c2)COc2ccccc21: 1.95 µM (inactive)
COc1cc(C(=O)CC2(O)C(=O)Nc3c(Cl)cc(Cl)cc32)ccc1O (stereo unspecified): 53 µM (inactive)
COc1cc(C)c2c(c1C)OC(=O)c1c(C)c(Cl)c(O)c(C=O)c1O2: 14.9 µM (inactive)
CCc1oc2ccc(OC)c3c2c1C=CC=C3: > 100 µM (inactive)

# context switch: different compound, same GI50
Query string: # GI50 lookup, item C#CCC[C@@H]1O[C@@]1(C)CC/C=C(\C)CC/C=C/C=O
Result string: 20 µM (inactive)

====

# System: DMS-114
# Procedure Text: NCI tumour cell line growth inhibition, 48 h
Calls of active or inactive are those of the source. Rule as the data show it: active = GI50 up to about 1.1 µM and inactive = higher.
Return exactly one item of class 1 (active), class 0 (inactive)

Query string: What did this assay record as the result for CCOC(=O)N1C/C(=C\c2ccc(N(C)C)cc2)C(=O)/C(=C/c2ccc(N(C)C)cc2)C1 ?
Result string: class 0

Query string: Would you kindly repeat that for CCCc1nc(NC#N)nc(C(=O)NC23CC4CC(CC(C4)C2)C3)c1C ?
Result string: class 0

Query string: Would you kindly repeat that for Cn1cc(NC(=O)c2cc(NC(=O)CCCCCCCC(=O)Nc3cc(C(=O)Nc4cc(C(=O)NCCC(=N)N)n(C)c4)n(C)c3)cn2C)cc1C(=O)NCCC(=N)N ?
Result string: class 0

Query string: Would you kindly repeat that for Cc1cc(C2CCCCC2)n(O)c(=O)c1 [CICLOPIROX OLAMINE] ?
Result string: class 0

Query string: Would you kindly repeat that for CNS(=O)(=O)NNS(=O)(=O)c1ccc(C)cc1 ?
Result string: class 0

Query string: Would you kindly repeat that for Cn1c(-c2ccccc2)c/c(=N\NS(C)(=O)=O)c2cc(S(=O)(=O)O)ccc21 ?
Result string: class 0

Query string: Would you kindly repeat that for CN(C)c1ccc(/C=C(\NC(=O)c2ccccc2)c2nc3ccc4c(c3[nH]2)C(=O)c2ccccc2C4=O)cc1 ?
Result string: class 0

Query string: Would you kindly repeat that for C=C(C)C(=O)OC1C/C(CO)=C\C(O)C/C(C)=C/C2OC(=O)C(=C)C21 (stereo unspecified) ?
Result string: class 0

Query string: Would you kindly repeat that for CC(=O)CCn1[nH]c(=O)c(Cl)c(Cl)c1=O ?
Result string: class 0

====

Reported GI50 values for a set of molecules
# Tested on: K562
# Procedure Text: NCI tumour cell line growth inhibition, 48 h
The source made the active and inactive calls. Rule as the data show it: active = GI50 up to about 1.1 µM and inactive = higher.

Past entries and their recorded results:
Cc1ccc(S(=O)(=O)C(C#N)c2nc3ccccc3nc2-n2ccnc2)cc1 (configuration not stated): > 100 µM (inactive)
CC(=O)[O-].Cc1ncc(CO)c(/C=N/NC(N)=S)c1[O-].[Zn+2]: > 100 µM (inactive)
CN1C(=O)C(O)CC1c1ccc(C(F)(F)F)cc1 (configuration not stated): > 100 µM (inactive)

Query string: # GI50 lookup, item O=C(NN1C(=O)CSC1c1ccco1)c1ccncc1 (configuration not stated)
Result string: > 100 µM (inactive)

Query string: Would you kindly repeat that for COc1cc(Br)cc2nc(-c3cccs3)oc12 ?
Result string: > 100 µM (inactive)

Query string: Would you kindly repeat that for CCCc1nc(NC#N)nc(C(=O)NC23CC4CC(CC(C4)C2)C3)c1C ?
Result string: > 100 µM (inactive)

Query string: Would you kindly repeat that for Cc1cc(OCC(O)CO)ccc1-c1ccccc1 (configuration not stated) ?
Result string: > 100 µM (inactive)

Query string: Would you kindly repeat that for Nc1nc(Cl)c(N)c(NCC2(CO)CC(CCCc3ccccc3)C2)n1 (configuration not stated) ?
Result string: 10.8 µM (inactive)

====

# System: MOLT-4
# Procedure Text: NCI tumour cell line growth inhibition, 48 h
The source made the active and inactive calls. No stated cut-off is given here; in the data, active = GI50 up to about 1.1 µM and inactive = higher.
Reported GI50 values for a set of molecules

Query string: # GI50 lookup, item O=S(=O)(c1ccccc1)c1nccs1
Result string: > 100 µM (inactive)

Query string: Would you kindly repeat that for Clc1ccccc1/C=C\C1(c2ccccc2)OCCO1 ?
Result string: 15.9 µM (inactive)

Query string: Would you kindly repeat that for CC(=O)Nc1sccc1S(=O)(=O)c1ccc(Cl)cc1 ?
Result string: > 100 µM (inactive)

Query string: Would you kindly repeat that for COCCOC(=O)C1=C(O)c2ccccc2S(=O)(=O)N1C ?
Result string: > 100 µM (inactive)

====

# Test system: HOP-18
# Procedure Text: NCI tumour cell line growth inhibition, 48 h
Activity calls are given as the source filed them. Rule as the data show it: active = GI50 up to about 1.1 µM and inactive = higher.
Return exactly one item of y for active, n for inactive

Worked examples follow.
Cc1ccc(NC(=O)C(=O)C(C(=O)c2ccc3ccccc3c2)C2OC(=O)c3ccccc32)cc1C (stereo unspecified): y
CCOC(=O)C1C(NC(N)=O)N(Cc2ccccc2)C(=O)N1Cc1ccccc1 (stereo unspecified): n
CN(C)CC(C)(C)C(=O)/C=C/c1ccccc1: n
CN(C)CCC1(C2=CCCC2)CC/C(=C\c2ccc3c(c2)OCO3)C1=O (stereo unspecified): n
COc1cc(-c2ccc(/N=N/c3ccc4c(S(=O)(=O)O)cc(S(=O)(=O)O)c(N)c4c3O)c(OC)c2)ccc1/N=N/c1ccc2c(S(=O)(=O)O)cc(S(=O)(=O)O)c(N)c2c1O: n
Cc1oc2c(c1C(=O)c1ccccc1)C(=O)c1ccccc1C2=O: n
CCOC(=O)C(=O)Nc1c(C)cccc1CC: n
Cn1cc(NC(=O)c2cc(NC(=O)CCCCCCCC(=O)Nc3cc(C(=O)Nc4cc(C(=O)NCCC(=N)N)n(C)c4)n(C)c3)cn2C)cc1C(=O)NCCC(=N)N: n
COc1nc(N)c(C(=O)CCl)c(=O)n1C: n
CC1CCC2(C(=O)O)CCC3(C)C(=CCC4C5(C)CCC(O)C(C)(C)C5CCC43C)C2C1C (stereo unspecified): n

Here is the next item to consider.
Query string: What did this assay record as the result for NC(=S)N/N=C(/CC(=O)c1ccccc1)C(=O)Nc1ccc(Cl)c(Cl)c1 ?
Result string: n

====

# System: OVCAR-8
# Procedure Text: NCI tumour cell line growth inhibition, 48 h
Calls of active or inactive are those of the source. No stated cut-off is given here; in the data, active = GI50 up to about 1.1 µM and inactive = higher.
Reported GI50 values for a set of compounds

Past entries and their recorded results:
COc1cc(C(=O)CC2(O)C(=O)Nc3c(Cl)cc(Cl)cc32)ccc1O (centres undefined): 63 µM (inactive)
CCc1n[nH]c(=O)n1NC(=O)CCCC(=O)O: > 100 µM (inactive)
COc1ccccc1NC(=O)C(CC(C(=O)Nc1ccccc1OC)/C(C)=N/Nc1ccc([N+](=O)[O-])cc1[N+](=O)[O-])/C(C)=N/Nc1ccc([N+](=O)[O-])cc1[N+](=O)[O-] (centres undefined): > 71 µM (inactive)

# context switch: different compound, same GI50
Query string: GET /values?readout=GI50&system=OVCAR-8&item= C[C@]12c3c4cc(NC(=O)C(=O)NCc5ccc(-c6ccccn6)nc5)cc3Oc3cc(NC(=O)C(=O)NCc5ccc(-c6ccccn6)nc5)cc(c31)OC1C=C(NC(=O)C(=O)NCc3ccc(-c5ccccn5)nc3)C=C(O4)C12 (some centres undefined)
Result string: 21.9 µM (inactive)
